# PROTOCOL_SUMMARY: Dissolution performance test: solubility in 3-ethyl-3-hydroxymethyl oxetane monomer
# Assay type: physicochemical
# TEST_CONTEXT: Table 4; maximum number of grams dissolved in 100 g 3-ethyl-3-hydroxymethyl oxetane monomer at 20° C.
MEASURED_PARAMETER: Solubility (g)

Example results:
>  <MOLECULE>
Cc1ccc([S+](c2ccc(C)c(F)c2)c2ccc3c(c2)sc2cc([S+](c4ccc(C)c(F)c4)c4ccc(C)c(F)c4)ccc23)cc1F

>  <MEASURED_PARAMETER>
Solubility

>  <VAL>
23.5

$$$$
>  <MOLECULE>
Cc1ccc([S+](c2ccc(-c3ccc([S+](c4ccc(C)c(C#N)c4)c4ccc(C)c(C#N)c4)cc3)cc2)c2ccc(C)c(C#N)c2)cc1C#N

>  <MEASURED_PARAMETER>
Solubility

>  <VAL>
21.0

$$$$
>  <MOLECULE>
Cc1ccc([S+](c2ccccc2)c2ccc(Sc3ccc([S+](c4ccccc4)c4ccc(C)c(F)c4)cc3)cc2)cc1F (stereo not shown)

>  <MEASURED_PARAMETER>
Solubility

>  <VAL>
21.5

$$$$
>  <MOLECULE>
CC(C)c1ccc([S+](c2ccc(-c3ccc([S+](c4ccc(C(C)C)c(F)c4)c4ccc(C(C)C)c(F)c4)cc3)cc2)c2ccc(C(C)C)c(F)c2)cc1F

>  <MEASURED_PARAMETER>
Solubility

>  <VAL>
24.8

$$$$
>  <MOLECULE>
Cc1ccc([S+](c2ccc(-c3ccc([S+](c4ccc(C)c(F)c4)c4ccc(C)c(F)c4)cc3)cc2)c2ccc(C)c(F)c2)cc1F

>  <MEASURED_PARAMETER>
Solubility

>  <VAL>
21.4

$$$$

I. Cc1ccc([S+](c2ccc(Oc3ccc([S+](c4ccc(C)c(F)c4)c4ccc(C)c(F)c4)cc3)cc2)c2ccc(C)c(F)c2)cc1F
II. Fc1cccc([S+](c2ccccc2)c2ccc(Sc3ccc([S+](c4ccccc4)c4cccc(F)c4)cc3)cc2)c1 [Compound D-1, reference compound]
Request: Looking only at measured Solubility, which entry is lower, I or II ? # reply format: chosen label
Response: II
